Assay overview: compounds raising F508del-CFTR protein level – cell-based, HeLa F508del-CFTR, immunofluorescence, viability, primary screen (AID 1224863)
Experimental setup: immunofluorescence total CFTR, 24 h, stronger effect = higher value; measured here: primary viability 10 ug/mL, library dosed in µg/mL unless noted
Screen size: about 10,000 compounds; about 15 (0.1%) were called active. Not all results are given here.
Reported viability values for a set of compounds
Write the answer as a number in %, unit excluded.

The following compounds have reported results that may help.
COc1cc(F)c(S(=O)(=O)Nc2ccc3c(c2)OC2(CCCCC2)O3)cc1OC    85
Cc1ccc(C)c(CS(=O)(=O)Cc2ccccc2SC(F)F)c1    86
CCc1cc(OCCCCNC)ccc1Cl    104
CSc1ncccc1C(=O)NC1CC2CC1C1CCCC21 (centres undefined)    103
C=CCn1c(C)cc(-c2csc(NC(=O)C3CC3)n2)c1C    93

If you can, please state the reported viability value of CC1(c2ccccc2)NC(=O)N(Cc2cc(=O)n3ccccc3n2)C1=O (centres undefined) .
91

If you can, please state the reported viability value of CC(CCc1ccco1)NC(=O)N1CCN(Cc2nc3scc(-c4cccs4)c3c(=O)[nH]2)CC1 (centres undefined) .
92

If you can, please state the reported viability value of CN1C(=O)C(=O)N(CCOc2ccc(Cl)cc2Br)C1=O .
90

If you can, please state the reported viability value of C=CCOc1ccccc1/C=C(/C#N)c1nc(N)nc(N(C)C)n1 .
85

* * *

Reported viability values for a set of compounds
Assay overview: compounds raising F508del-CFTR protein level – cell-based, HeLa F508del-CFTR, immunofluorescence, viability, primary screen (AID 1224863)
Experimental setup: immunofluorescence total CFTR, 24 h, stronger effect = higher value; measured here: primary viability 10 ug/mL, library dosed in µg/mL unless noted
In all, about 10,000 compounds went through this assay and about 15 (0.1%) were called active. Only a sample is shown.
Write the answer as a number in %, unit excluded.

The following compounds have reported results that may help.
Cc1nnc(COC(=O)C2=Cc3ccccc3OC2)o1    102
COC(=O)/C=C/c1ccc(OCC(=O)c2ccc(OC(F)F)cc2)c(OC)c1    94
O=C(OCc1cc(Cl)c2c(c1)OCO2)c1ccco1    90
CCN1C(=O)c2ccccc2N2C(=O)CCC12C(=O)NC(C)c1ccc(F)cc1 (stereo not given)    97
COC(=O)c1ccc(OCC(=O)c2ccc3c(c2)CCO3)c(OC)c1    97

Kindly consider the entry below.
If you can, please state the reported viability value of O=C(O)CN1C(=O)COc2cc(Br)ccc21 .
101

* * *

Experimental target: Cystic fibrosis transmembrane conductance regulator (Homo sapiens)
Assay overview: compounds raising F508del-CFTR protein level – cell-based, HeLa F508del-CFTR, immunofluorescence, viability, primary screen (AID 1224863);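 as to fold increase: total CFTR protein by anti-CFTR immunofluorescence in fixed cells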
Experimental setup: immunofluorescence total CFTR, 24 h; measured here: primary screen 10 ug/mL, library dosed in µg/mL, stronger effect = higher value unless noted
Hit rate of the full screen: of about 10,000 compounds, about 15 (0.1%) were called active. Not all results are given here.
Reported fold increase values for a set of compounds
Give the value as a plain number.

The following compounds have reported results that may help.
CN1N=C(C(=O)Nc2ccc3c(c2)OC2(CCCC2)O3)CCC1=O    0.97
CSc1ncccc1C(=O)NC1CC2CC1C1CCCC21 (centres undefined)    1.14
CC(CCc1ccco1)NC(=O)N1CCN(Cc2nc3scc(-c4cccs4)c3c(=O)[nH]2)CC1 (centres undefined)    0.93
CCN(CC)C(=O)C(C)NC(=O)c1c(C)oc(-n2cccc2)c1C#N (centres undefined)    0.95
CN(CC(=O)NC(=O)NCCC1=CCCCC1)Cc1ccc(Cl)s1    0.92
O=S(=O)(Nc1ccc(Cl)c(S(=O)(=O)N2CCOCC2)c1)c1ccc2ccccc2c1    1.11
Cc1nc(CNC(C(=O)O)C(C)C)cs1 (centres undefined)    1.06
CC(=O)N1C=Cc2ccccc2C1CC(=O)Nc1cc2c(cc1Cl)OCO2 (centres undefined)    0.97

If you can, please state the reported fold increase value of C=CCNCC(F)(F)F .
1.07

If you can, please state the reported fold increase value of Cn1ccnc1COc1ccc(C(=O)O)cc1 .
1.02

If you can, please state the reported fold increase value of Cn1ncc2c(NCC3(N4CCCCC4)CCCCC3)ncnc21 .
1.05

If you can, please state the reported fold increase value of O=S(=O)(Cc1ccc(F)cc1Cl)C12CC3CC(CC(C3)C1)C2 .
1.1

If you can, please state the reported fold increase value of CC(c1nc(C(C)(C)C)no1)N1CCN(c2ccccc2F)CC1 (centres undefined) .
0.89

If you can, please state the reported fold increase value of CCN(CC)S(=O)(=O)c1ccc(S(=O)(=O)Nc2nc3ccccc3nc2N2CCCC2)cc1 .
1.04

If you can, please state the reported fold increase value of Cn1cc(C#N)c(=O)n(CC(=O)Nc2sccc2C(N)=O)c1=O .
1.07

If you can, please state the reported fold increase value of Cc1cc(C(=O)COc2cc(C(F)(F)F)cc(C(F)(F)F)c2)c(C)n1Cc1ccc2c(c1)OCO2 .
1.11

If you can, please state the reported fold increase value of O=C1c2ccccc2C(O)(c2ccc(Cl)cc2)N1CCSCc1ccco1 (centres undefined) .
0.9

If you can, please state the reported fold increase value of Cc1ccc(-n2nnnc2SCc2cn3cccc(C)c3n2)cc1C .
0.98

If you can, please state the reported fold increase value of Cc1cc(NC(=O)N2CCN(C(=O)OC(C)(C)C)CC2)no1 .
1.12

If you can, please state the reported fold increase value of O=C(CC1CC2CCC1C2)N1CCN(c2cnccn2)CC1 (centres undefined) .
1

If you can, please state the reported fold increase value of Cc1cc(C(=O)Cn2nnn(-c3cccs3)c2=O)c(C)n1CCc1cccs1 .
0.85

If you can, please state the reported fold increase value of CC(C)Sc1nc2cc(Cl)ccc2c(=O)n1CC1CCCO1 (centres undefined) .
0.87

If you can, please state the reported fold increase value of Cn1ccc(S(=O)(=O)N2CCN(C(=O)CCC(=O)c3cccs3)CC2)c1 .
1.19

If you can, please state the reported fold increase value of O=C(NCCc1ccc2c(c1)OCCO2)NCc1cccnc1OC1CCCC1 .
0.85

If you can, please state the reported fold increase value of CCOCCSc1nnc(-c2ccccc2)n1C .
1.04

* * *

Assay overview: compounds raising F508del-CFTR protein level – cell-based, HeLa F508del-CFTR, immunofluorescence, viability, primary screen (AID 1224863)
Experimental setup: immunofluorescence total CFTR, 24 h, stronger effect = higher value; measured here: primary viability 10 ug/mL, library dosed in µg/mL unless noted
Among all 10,000 compounds or so, about 15 (0.1%) were called active. A selection follows.
Property: viability (%)
Write the answer as a number in %, unit excluded.

The following compounds have reported results that may help.
CC(=O)N1C=Cc2ccccc2C1CC(=O)Nc1cc2c(cc1Cl)OCO2 (stereo not given)    89
CC(C)CN1C(=O)c2ccc([N+](=O)[O-])cc2C1=O    88
O=S(=O)(Nc1cc2c(cc1Br)OCCO2)c1ccc(Br)cc1    88

If you can, please state the reported viability value of CC(C)Sc1nc2cc(Cl)ccc2c(=O)n1CC1CCCO1 (stereo not given) .
90

If you can, please state the reported viability value of CC(c1nc2ccccc2s1)N(C)CN1C(=O)C2CC=CCC2C1=O (stereo not given) .
91

* * *

Reported fold increase values for a set of compounds
Experimental target: Cystic fibrosis transmembrane conductance regulator (Homo sapiens)
Assay overview: compounds raising F508del-CFTR protein level – cell-based, HeLa F508del-CFTR, immunofluorescence, viability, primary screen (AID 1224863);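 as to fold increase: total CFTR protein by anti-CFTR immunofluorescence in fixed cells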
Experimental setup: immunofluorescence total CFTR, 24 h; measured here: primary screen 10 ug/mL, library dosed in µg/mL, stronger effect = higher value unless noted
In all, about 10,000 compounds went through this assay and about 15 (0.1%) were called active. These entries were drawn from the full list.
Give the value as a plain number.

O=S(=O)(Nc1ccc2c(c1)OCCO2)c1cc(F)cc(F)c1    0.92

If you can, please state the reported fold increase value of O=S(=O)(c1ccc(S(=O)(=O)N(Cc2ccc3c(c2)OCO3)C2CCCC2)cc1)N1CCCC1 .
0.96

If you can, please state the reported fold increase value of N#Cc1ccc(CS(=O)(=O)N2CCCCCCC2)cc1 .
1.03

If you can, please state the reported fold increase value of CCOC(=O)C1SC(SCc2cc(C(=O)OC)c(C)o2)=NC1=O (configuration not stated) .
1.01

If you can, please state the reported fold increase value of Cc1noc(C)c1CN1CCCC(NS(C)(=O)=O)C1 (configuration not stated) .
1.04

If you can, please state the reported fold increase value of CCCCS(=O)(=O)Nc1ccc(F)c(N)c1 .
0.96

If you can, please state the reported fold increase value of COC(=O)/C=C/c1ccc(OCC(=O)c2ccc(OC(F)F)cc2)c(OC)c1 .
1.05

If you can, please state the reported fold increase value of C=CCOc1ccc(/C(O)=C2/C(=O)C(=O)N(CCCN(C)C)C2c2cccc(Br)c2)cc1 (configuration not stated) .
1.07

If you can, please state the reported fold increase value of CCOCCCNc1sc(S(C)(=O)=O)nc1S(=O)(=O)c1ccc(C)cc1 .
1.05

If you can, please state the reported fold increase value of Cn1cc(S(=O)(=O)NC2(c3ccc4c(c3)OCCO4)CCCC2)c(=O)n(C)c1=O .
1.05

If you can, please state the reported fold increase value of CC(C)CN1CC(C(=O)Nc2ccc3c(c2)OC2(CCCC2)O3)CC1=O (configuration not stated) .
1.08

If you can, please state the reported fold increase value of CC1(c2ccc3c(c2)OCO3)NC(=O)N(Cc2ccc3c(c2)OCO3)C1=O (configuration not stated) .
0.99

If you can, please state the reported fold increase value of CC1CCC2(CC1)NC(=O)N(CN1CCC(C(=O)c3ccc4c(c3)OCCO4)CC1)C2=O (configuration not stated) .
1.04

If you can, please state the reported fold increase value of COCCN1C(=O)C(=O)/C(=C(/O)c2ccccc2)C1c1cccc(Oc2ccccc2)c1 (configuration not stated) .
0.99

If you can, please state the reported fold increase value of Nc1cnn(CCO)c1 .
0.96

If you can, please state the reported fold increase value of O=[N+]([O-])c1cn(Cc2cn(-c3ccccc3)nc2-c2ccc(Cl)cc2)cn1 .
1.3

If you can, please state the reported fold increase value of Clc1ccc(CN2CCN(c3ccc(Br)cn3)CC2)s1 .
1.02
